Taken from ChEMBL document CHEMBL1147031.

Experiment: Inhibition of pieris rapae Phenoloxidase
Value kind: IC50 (mM)

Example results:
In [3]: df
Out[3]:
           structure_smiles  value_kind  measured_value
0  CC(C)(C)c1ccc(C(=O)O)cc1        IC50             2.1
1       COc1ccc(C(=O)O)cc1O        IC50            47.5
2           O=Cc1ccc(O)cc1O        IC50            4.88
3             COc1ccccc1C=O        IC50             107
4           COc1cccc(C=O)c1        IC50            42.9

A: O=C(O)c1ccccc1
B: CC(C)(C)c1ccc(C=O)cc1
Could you tell me which of A and B has the lower IC50 reading? Label of pick, please. B

* * *

Assay: Inhibition of pieris rapae Phenoloxidase
pIC50: −log10 of the molar value.
Value kind: pIC50

>>> df
                   compound  measured_value
0     CC(C)c1ccc(C(=O)O)cc1            2.72
1        Nc1cc(C(=O)O)ccc1O            2.42
2        COc1cccc(C(=O)O)c1            1.88
3       COc1cc(C(=O)O)ccc1O            1.16
4  NC(=S)N/N=C\C=C\c1ccccc1            6.19

P: COc1cccc(/C=N/NC(N)=S)c1
Q: O=Cc1ccc(O)c(O)c1
Could you tell me which of P and Q has the lower pIC50 reading? Label of pick, please. Q

P: O=C(O)c1ccc(O)cc1
Q: COc1ccc(C=O)c(O)c1
R: NC(=S)N/N=C/c1ccccc1
Sort by pIC50, descending. Write out the labels following the order that was asked for. R, Q, P
(R: 6.08, Q: 2.70, P: 1.79)

* * *

Test: Inhibition of pieris rapae Phenoloxidase
pIC50: −log10 of the molar value.
Value kind: pIC50

Example results:
>>> print(df.to_string())
                                   compound  measured_value
0                           COc1ccc(C=O)cc1            2.72
1                       CCCc1ccc(C(=O)O)cc1            2.76
2                  COc1ccc(/C=N/NC(N)=S)cc1            6.22
3                              O=Cc1ccccc1O            2.38
4        O=C(O)c1cc(O)ccc1O [GENTISIC ACID]            1.49
5    O=Cc1ccc(O)cc1 [4-HYDROXYBENZALDEHYDE]            2.51
6          O=C(O)c1ccccc1O [SALICYLIC ACID]            1.47
7               COc1cc(C=O)ccc1O [VANILLIN]            1.30
8            COc1ccc(C=O)cc1O [ISOVANILLIN]            1.60
9  O=C(O)c1ccc(O)c(O)c1 [PROTOCATECHUIC ACID]            1.53

1: O=C(O)c1cccc(O)c1 [3-HYDROXYBENZOIC ACID]
2: COc1cccc(C=O)c1O
3: NC(=S)N/N=C/c1ccccc1O
Sort by pIC50, descending. Write out the labels following the order that was asked for. 3, 2, 1

A: Nc1ccc(C(=O)O)cc1O
B: COc1ccc(C(=O)O)cc1 [p-ANISIC ACID]
C: O=Cc1cccc(O)c1 [3-HYDROXYBENZALDEHYDE]
Sort by pIC50, descending. Write out the labels following the order that was asked for. B, C, A
(B: 2.26, C: 2.02, A: 1.59)

* * *

Below is a list of entries, each paired with its recorded pIC50 value.
Test: Inhibition of pieris rapae Phenoloxidase
pIC50 (log units): -log10 of the concentration in mol/L.

Example results:
>>> print(df.to_string())
                                   molecule  measured_value
0                               O=Cc1ccccc1            2.23
1  O=C(O)c1ccc(O)cc1O [2,4-DIHYDROXYBENZOIC ACID]            1.52

Now look at this entry.
I have this molecule here, `CC(C)c1ccc(C=O)cc1` , and I need its recorded pIC50. 3.07
